Conditions: 313.15 K; 101 kPa; Liquid; Vibrating tube method
attribute_measured: mass density (kg/m3)

CCc1ccccc1 = 851.8
C=Cc1ccccc1 = 886.9
c1ccccc1 = 857.9
Cc1ccccc1 = 848.2

---

Settings: 293.15 K; 101 kPa; Liquid; Vibrating tube method
attribute_measured: mass density (kg/m3)

CCc1ccccc1 = 867.8
C=Cc1ccccc1 = 906
CC1COC(=O)O1 (stereo not given) = 1200.3
Cc1ccccc1 = 866.8
c1ccccc1 = 877.8

---

Details: 333.15 K; 101 kPa; Liquid; Vibrating tube method
attribute_measured: mass density (kg/m3)

Cc1ccccc1 = 829.5
c1ccccc1 = 836.6
CCc1ccccc1 = 845.8
CC1COC(=O)O1 (stereo not given) = 1124
C=Cc1ccccc1 = 867.8

---

Conditions: 343.15 K; 101 kPa; Liquid; Vibrating tube method
attribute_measured: mass density (kg/m3)

C=Cc1ccccc1 = 858.2
c1ccccc1 = 825.4
CC1COC(=O)O1 (centres undefined) = 1106
Cc1ccccc1 = 820

---

Details: 353.15 K; 101 kPa; Liquid; Vibrating tube method
attribute_measured: mass density (kg/m3)

C=Cc1ccccc1 = 848.6
CC1COC(=O)O1 (centres undefined) = 1088.4
Cc1ccccc1 = 810.5
c1ccccc1 = 813.9

---

Assay: refractive index (Na D-line) (dimensionless)
Conditions: 298.15 K; 101.33 kPa; Liquid; Standard Abbe refractometry
attribute_measured: refractive index

C=Cc1ccccc1 [styrene] = 1.546
c1ccccc1 [benzene] = 1.5009
Cc1ccccc1 [toluene] = 1.4965
CCc1ccccc1 [ethylbenzene] = 1.4962

---

Conditions: 303.15 K; 101 kPa; Liquid; Vibrating tube method
attribute_measured: mass density (kg/m3)

Cc1ccccc1 = 857.5
C=Cc1ccccc1 = 896.4
c1ccccc1 = 868
CC1COC(=O)O1 (stereo not given) = 1180.6
CCc1ccccc1 = 858.6

---

Settings: 323.15 K; 101 kPa; Liquid; Vibrating tube method
attribute_measured: mass density (kg/m3)

C=Cc1ccccc1 = 877.3
CCc1ccccc1 = 847.6
c1ccccc1 = 847.4
CC1COC(=O)O1 (stereo not given) = 1142.4
Cc1ccccc1 = 838.9
